Entry source: ChEMBL document CHEMBL1201862

target: Paired box protein Pax-8 (Homo sapiens); experiment: inhibitors of PAX8-driven TPO luciferase reporter, dose response, RMG-I cells, cherry-pick (AID 687027); format: functional, cell-based;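 note: luciferase reporter driven by Pax8 target thyroperoxidase promoter measured by SteadyGlo luminescence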
Sequence (Q06710 whole entry): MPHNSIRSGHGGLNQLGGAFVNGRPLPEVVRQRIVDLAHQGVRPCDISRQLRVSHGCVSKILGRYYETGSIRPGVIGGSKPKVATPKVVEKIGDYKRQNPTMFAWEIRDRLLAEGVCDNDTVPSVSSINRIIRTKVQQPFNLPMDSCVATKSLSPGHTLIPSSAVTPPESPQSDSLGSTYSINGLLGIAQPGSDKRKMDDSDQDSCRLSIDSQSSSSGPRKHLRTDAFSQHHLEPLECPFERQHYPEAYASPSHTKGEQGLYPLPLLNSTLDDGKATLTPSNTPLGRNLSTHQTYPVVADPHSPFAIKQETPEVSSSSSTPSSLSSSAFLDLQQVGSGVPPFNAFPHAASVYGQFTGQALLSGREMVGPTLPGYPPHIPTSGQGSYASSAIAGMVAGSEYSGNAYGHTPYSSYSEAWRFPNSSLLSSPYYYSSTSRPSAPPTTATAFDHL
Where a name gives a salt, the structure may show the parent alone. Calls of active or inactive are those of the source. The rule behind the calls is not given here.
parameter: AC50

Recorded AC50, per entry:
C[C@@H]1CCCCO[C@H](CN(C)Cc2ccc(Cl)c(Cl)c2)[C@@H](C)CN([C@@H](C)CO)C(=O)c2cc(NS(=O)(=O)c3ccccc3)ccc2O1; 5 µM (active)
O=C(Nc1cccc(-c2ccc(N3CCCCC3)nn2)c1)C(F)(F)F; 3.04 µM (active)
C=CCNC(=S)N/N=C(\C)c1ccccn1; < 0.26 µM (active)
C[C@@H]1CCCCO[C@H](CN(C)Cc2ccc(C(F)(F)F)cc2)[C@@H](C)CN([C@@H](C)CO)C(=O)c2cc(NS(=O)(=O)c3ccccc3)ccc2O1; 4.17 µM (active)
CC[C@@]1(O)C(=O)OCc2c1cc1n(c2=O)Cc2cc3c(CN(C)C)c(O)ccc3nc2-1 [TOPOTECAN HYDROCHLORIDE]; < 0.26 µM (active)

get_value(item= COc1cc2c(c(OC)c1OC)-c1ccc(OC)c(=O)cc1[C@@H](NC(C)=O)CC2 , readout=AC50) returns < 0.26 µM (active)

get_value(item= C[C@H]1CN([C@@H](C)CO)C(=O)Cc2cc(NC(=O)NC3CCCCC3)ccc2O[C@@H]1CN(C)Cc1ccc(-c2ccccc2)cc1 , readout=AC50) returns 14.5 µM (active)

get_value(item= C[C@@H]1CCCCO[C@H](CN(C)Cc2ccc(C(F)(F)F)cc2)[C@H](C)CN([C@@H](C)CO)C(=O)c2cc(NC(=O)c3ccccc3)ccc2O1 , readout=AC50) returns 19.1 µM (active)

get_value(item= C[C@@H]1O[C@@H](O[C@H]2C[C@@H](O)[C@]3(CO)[C@H]4[C@H](O)C[C@]5(C)[C@@H](C6COC(=O)C6)CC[C@]5(O)[C@@H]4CC[C@]3(O)C2)[C@H](O)[C@H](O)[C@H]1O (some centres undefined) , readout=AC50) returns 5.38 µM (active)
